Test system: Male Sprague–Dawley rats
Type: in vivo, rat
assay.setup: 24 h, Fig. 4C, p < 0.05
endpoint.name: LysoPC(20:1) blood level vs control

molecule | measurement.target | endpoint.name | result
CC(=O)Nc1ccc(O)cc1 | Male Sprague–Dawley rats | LysoPC(20:1) blood level vs control | appeared to be decreased
NC(=O)OCC(COC(N)=O)c1ccccc1 [FEL, felbamate] | Male Sprague–Dawley rats | LysoPC(20:1) blood level vs control | significantly decreased
O=C1CN(/N=C/c2ccc(-c3ccc([N+](=O)[O-])cc3)o2)C(O)=N1 | Male Sprague–Dawley rats | LysoPC(20:1) blood level vs control | significantly decreased
Cc1cnc(NC(=O)C2=C(O)c3ccccc3S(=O)(=O)N2C)s1 | Male Sprague–Dawley rats | LysoPC(20:1) blood level vs control | appeared to be decreased
